Listing of entries alongside the reported inhibition at 2000 µM.
# Measurement Target: PfCRT^Ecu1110 (Plasmodium falciparum, UniProt Q9N623, A220S/I356L/K76T/N326D)
# Sequence (Q9N623 whole entry A220S/I356L/K76T/N326D): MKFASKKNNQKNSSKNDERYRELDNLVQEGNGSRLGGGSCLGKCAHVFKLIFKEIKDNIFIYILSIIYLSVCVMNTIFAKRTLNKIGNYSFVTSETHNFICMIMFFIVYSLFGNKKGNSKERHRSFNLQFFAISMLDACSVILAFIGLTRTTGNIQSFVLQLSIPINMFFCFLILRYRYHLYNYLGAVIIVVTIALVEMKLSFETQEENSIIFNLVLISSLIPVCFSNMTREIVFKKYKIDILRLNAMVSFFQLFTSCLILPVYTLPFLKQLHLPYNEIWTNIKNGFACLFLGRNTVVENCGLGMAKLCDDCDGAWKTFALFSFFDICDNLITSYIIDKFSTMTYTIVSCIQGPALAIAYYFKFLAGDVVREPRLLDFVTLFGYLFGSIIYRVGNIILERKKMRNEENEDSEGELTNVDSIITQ
# Method Notes: [3H]CQ uptake into Xenopus oocytes, cis-inhibition by unlabelled solute
# Format: cell-based
# Measurement Conditions: read-out: [3H]CQ transport (% PfCRTEcu1110 control), cis-inhibition, PfCRTEcu1110; SEM
Quantity: inhibition at 2000 µM (%)

INSERT INTO measurements (smiles_structure, quantity, assay_value) VALUES
  ('N[C@@H](CS)C(=O)O', 'inhibition at 2000 µM', 30),
  ('O=C(O)[C@@H]1CCCN1', 'inhibition at 2000 µM', 29),
  ('NC(=O)CC[C@H](N)C(=O)O', 'inhibition at 2000 µM', 29),
  ('N[C@@H](CCC(=O)O)C(=O)O', 'inhibition at 2000 µM', 29),
  ('C[C@@H](O)[C@H](N)C(=O)O', 'inhibition at 2000 µM', 28);

* * *

Listing of entries alongside the reported PfCRT-mediated [3H]CQ transport, trans-stimulation by injected solute, PfCRTDd2.
# Measurement Target: PfCRT^Dd2 (Plasmodium falciparum, UniProt Q9N623, A220S/I356T/K76T/M74I/N326S/N75E/Q271E/R371I)
# Sequence (Q9N623 whole entry A220S/I356T/K76T/M74I/N326S/N75E/Q271E/R371I): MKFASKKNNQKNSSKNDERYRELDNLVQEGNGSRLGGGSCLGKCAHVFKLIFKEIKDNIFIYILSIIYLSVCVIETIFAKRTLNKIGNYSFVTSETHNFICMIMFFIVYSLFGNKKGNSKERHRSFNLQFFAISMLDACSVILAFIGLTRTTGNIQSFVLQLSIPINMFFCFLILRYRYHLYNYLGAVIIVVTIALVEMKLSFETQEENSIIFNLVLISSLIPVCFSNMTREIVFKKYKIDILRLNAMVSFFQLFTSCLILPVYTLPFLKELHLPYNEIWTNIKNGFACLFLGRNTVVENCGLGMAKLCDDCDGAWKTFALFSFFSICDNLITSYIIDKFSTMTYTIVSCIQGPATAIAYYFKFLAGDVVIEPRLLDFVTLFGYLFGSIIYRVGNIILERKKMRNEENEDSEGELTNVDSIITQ
# Method Notes: cell-based
# Type: cell-based
# Measurement Conditions: footnote b: due to solubility the highest intracellular concentration tested was 30 mM; background subtracted
Quantity: PfCRT-mediated [3H]CQ transport, trans-stimulation by injected solute, PfCRTDd2

INSERT INTO results (biopolymer_sequence, assay_value) VALUES
  ('VHLTPEEKSAVT [VT-12]', '98 ± 2.2b % of PfCRTDd2 control'),
  ('GTFATLSELHCDK [GK-13]', '95 ± 1.3b % of PfCRTDd2 control'),
  ('LTPEEKSAVTALWGKVNVDEVGGEA [LA-25, additional peptide, 25 residues]', '97 ± 3.3b % of PfCRTDd2 control'),
  ('SFGDLSTPDAVMG [SG-13]', '98 ± 3.0b % of PfCRTDd2 control'),
  ('YFPHFDLS [YS-8]', '97 ± 1.7b % of PfCRTDd2 control'),
  ('NAVAHVDDMPNALSALSDLH [NH-20, additional peptide, 20 residues]', '97 ± 3.6b % of PfCRTDd2 control'),
  ('VEPSDTIENVK [VK-11]', '96 ± 2.1b % of PfCRTDd2 control'),
  ('LTPEEKSAVTAL [LL-12]', '98 ± 1.1b % of PfCRTDd2 control'),
  ('DDEGDDDPVPLPNVNA [DA-16, additional peptide, 16 residues]', '100 ± 1.9b % of PfCRTDd2 control'),
  ('FESFGDLSTPDAVMGNPKVK [FK-20, additional peptide, 20 residues]', '98 ± 4.3b % of PfCRTDd2 control');

* * *

# Measurement Target: PfCRT^Ecu1110 (Plasmodium falciparum, UniProt Q9N623, A220S/I356L/K76T/N326D)
# Method Notes: [3H]CQ uptake into Xenopus oocytes, cis-inhibition by unlabelled solute
# Format: cell-based
# Measurement Conditions: read-out: [3H]CQ transport (% PfCRTEcu1110 control), cis-inhibition, PfCRTEcu1110; SEM
Quantity: inhibition at 2000 µM (%)

INSERT INTO assay_data (smiles_structure, quantity, unit_info, assay_value) VALUES
  ('CC(C)[C@H](N)C(=O)O', 'inhibition at 2000 µM', '%', 28),
  ('NCCCC[C@H](N)C(=O)O', 'inhibition at 2000 µM', '%', 29),
  ('CC[C@H](C)[C@H](N)C(=O)O', 'inhibition at 2000 µM', '%', 30),
  ('C[C@H](N)C(=O)O', 'inhibition at 2000 µM', '%', 29),
  ('N[C@@H](Cc1c[nH]cn1)C(=O)O', 'inhibition at 2000 µM', '%', 30),
  ('N=C(N)NCCC[C@H](N)C(=O)O', 'inhibition at 2000 µM', '%', 30),
  ('N[C@@H](Cc1ccc(O)cc1)C(=O)O', 'inhibition at 2000 µM', '%', 29),
  ('N[C@@H](CO)C(=O)O', 'inhibition at 2000 µM', '%', 30),
  ('N[C@@H](Cc1ccccc1)C(=O)O', 'inhibition at 2000 µM', '%', 29),
  ('N[C@@H](Cc1c[nH]c2ccccc12)C(=O)O', 'inhibition at 2000 µM', '%', 30),
  ('CC(C)C[C@H](N)C(=O)O', 'inhibition at 2000 µM', '%', 30),
  ('CSCC[C@H](N)C(=O)O', 'inhibition at 2000 µM', '%', 30);
